Test system: A549 NSCLC
assay_info: NCI tumour cell line growth inhibition, 48 h
assay_endpoint: TGI

Use the examples below as a reference point.
{"columns": ["compound", "TGI"],
 "data": [
  ["CC/C=C\\C/C=C\\C[C@H]1C/C=C2/C(=O)C=C[C@@H]2C/C=C\\CCC(=O)O1", "10.9 µM"],
  ["CCCCCCCC/C=C\\CCCCCCC/C=C1/C[C@](/C=C/C(=O)OC)(CO)OC1=O", "17.3 µM"]
]}

For the compound shown here, O=C(NC1CCC(Br)CC1)C1CCCC(S(=O)(=O)NC2CCCCC2)C1 (stereo not given) , give the reported TGI. 44.8 µM

// lookup TGI for C/C=C\C(CC(=O)O)CN1CCC2=C(C1)C(S(=O)(=O)C(F)(F)F)c1ccccc12 (stereo not given) > 100 µM

Given the compound O=Cc1c(Cn2ccnc2)c2cc([N+](=O)[O-])ccc2n1Cc1ccccc1 , what is its reported TGI? > 100 µM
